Origin of the recorded values: a melting point compilation (Tetko et al.; mined from patent text by program, amines drawn as free bases though some values may be those of a salt)

Entries and their measured melting point follow.

A selection of reference data follows.
compound	melting point
CC(C)(C)CNc1cc(N2CCNCC2)nc(NCC(C)(C)C)n1	138 to 140 °C
CC(C)S(=O)(=O)NCC(C)(F)c1ccc(-c2ccc(CC#N)cc2)cc1 (centres undefined)	155 to 157 °C
OCC1=CCc2cc3ccccc3cc21	115 to 116 °C
O=C(O)[C@@H](CSCc1ccccc1)N1C(=O)C=CC1=O	86 to 87 °C
COCOc1ccccc1COc1cc2c(cc1-c1cc(C=CC(=O)O)ccc1OC)C(C)(C)CCC2(C)C	159 to 161 °C

Find the recorded melting point belonging to COc1ccc2c(c1)C(C(=O)Nc1c(C(C)C)cccc1C(C)C)c1cccnc1CO2 (centres undefined) and report it.
180 to 181 °C

Bench note: what melting point did Cc1cc2c(c(NC(C(N)=O)c3c(Cl)cccc3Cl)c1)C(=O)CC2 (centres undefined) show?
250 °C

Give its melting point value. Item: "CC[C@H]1Oc2ccccc2C(=O)N2CCC[C@@H]12"
118 to 119 °C

Need melting point, item "COc1cccc2c1Oc1sc(C)cc1C(=O)N2"
160 to 164 °C
